Target: panel of 255 wild-type kinases (Homo sapiens)
Test: Kinase panel profiling at 1 µmol/L (MSA or IMAP), percentage inhibition
Format: biochemical
Settings: CaMK2β kinase assay; 1 µmol/L single concentration; read-out: %-inhibition CaMK2β
property.measured: inhibition at 1 µM (%)
Answers are plain numbers, in %.

Here is how some molecules turned out for inhibition at 1 µM.
1. CN1CCN(c2ccc(C(=O)Nc3n[nH]c4ccc(Cc5cc(F)cc(F)c5)cc34)c(NC3CCOCC3)c2)CC1 [entrectinib] ... 13
2. COc1ccc(CN2C3CC2CN(c2ccc(-c4cc(OCC(C)(C)O)cn5ncc(C#N)c45)cn2)C3)cn1 [selpercatinib] ... 1.27
3. Cc1cc(Nc2ncnc3ccc(NC4=NC(C)(C)CO4)cc23)ccc1Oc1ccn2ncnc2c1 [tucatinib] ... 1.33
4. COC(=O)N[C@@H](C)CNc1nccc(-c2cn(C(C)C)nc2-c2cc(Cl)cc(NS(C)(=O)=O)c2F)n1 [encorafenib] ... 4.23
5. COc1cc2ncnc(Nc3ccc(F)c(Cl)c3)c2cc1NC(=O)/C=C/CN1CCCCC1 [dacomitinib] ... 2.54

Could you report inhibition at 1 µM for every entry in the following list?
1. CCN1C(=O)N(c2c(F)c(OC)cc(OC)c2F)Cc2cnc3[nH]c(CN4CCOCC4)cc3c21 [pemigatinib]
2. Cc1nc(NC(=O)N2CCC[C@H]2C(N)=O)sc1-c1ccnc(C(C)(C)C(F)(F)F)c1 [alpelisib]

*A*
1: 9; 2: -7

----------
System: 134 cancer cell lines
Assay: Cell viability assay (ATPlite, 72 hours), IC50 on cancer cell line panel
Settings: Homo sapiens, THP-1, read-out: IC50 in cell proliferation assay, cell line THP-1
property.measured: IC50

Could you report IC50 for every entry in the following list?
1. O=C(c1ccc(F)c(F)c1Nc1ccc(I)cc1F)N1CC(O)([C@@H]2CCCCN2)C1
2. CO[C@]1(C(=O)N[C@@H](C)c2ccc(-n3cc(F)cn3)nc2)CC[C@H](c2nc(C)cc(Nc3cc(C)[nH]n3)n2)CC1

*A*
0.02 µM
> 31.6 µM

Could you report IC50 for every entry in the following list?
1. FC(F)(F)c1ccc(CNc2ccc(Cc3c[nH]c4ncc(Cl)cc34)cn2)cn1
2. CCCS(=O)(=O)Nc1ccc(F)c(C(=O)c2c[nH]c3ncc(-c4ccc(Cl)cc4)cc23)c1F
3. COc1cc2ncnc(Nc3ccc(F)c(Cl)c3)c2cc1NC(=O)/C=C/CN1CCCCC1

*A*
1. > 31.6 µM
2. > 31.6 µM
3. 3.91 µM

Entry COc1ccc(CN2C3CC2CN(c2ccc(-c4cc(OCC(C)(C)O)cn5ncc(C#N)c45)cn2)C3)cn1 under 134 cancer cell lines had IC50 of > 31.6 µM

----------
For each record, write down the corresponding inhibition at 1 µM.
Molecular target: panel of 255 wild-type kinases (Homo sapiens, UniProt Q16288)
Sequence (Q16288 32-839): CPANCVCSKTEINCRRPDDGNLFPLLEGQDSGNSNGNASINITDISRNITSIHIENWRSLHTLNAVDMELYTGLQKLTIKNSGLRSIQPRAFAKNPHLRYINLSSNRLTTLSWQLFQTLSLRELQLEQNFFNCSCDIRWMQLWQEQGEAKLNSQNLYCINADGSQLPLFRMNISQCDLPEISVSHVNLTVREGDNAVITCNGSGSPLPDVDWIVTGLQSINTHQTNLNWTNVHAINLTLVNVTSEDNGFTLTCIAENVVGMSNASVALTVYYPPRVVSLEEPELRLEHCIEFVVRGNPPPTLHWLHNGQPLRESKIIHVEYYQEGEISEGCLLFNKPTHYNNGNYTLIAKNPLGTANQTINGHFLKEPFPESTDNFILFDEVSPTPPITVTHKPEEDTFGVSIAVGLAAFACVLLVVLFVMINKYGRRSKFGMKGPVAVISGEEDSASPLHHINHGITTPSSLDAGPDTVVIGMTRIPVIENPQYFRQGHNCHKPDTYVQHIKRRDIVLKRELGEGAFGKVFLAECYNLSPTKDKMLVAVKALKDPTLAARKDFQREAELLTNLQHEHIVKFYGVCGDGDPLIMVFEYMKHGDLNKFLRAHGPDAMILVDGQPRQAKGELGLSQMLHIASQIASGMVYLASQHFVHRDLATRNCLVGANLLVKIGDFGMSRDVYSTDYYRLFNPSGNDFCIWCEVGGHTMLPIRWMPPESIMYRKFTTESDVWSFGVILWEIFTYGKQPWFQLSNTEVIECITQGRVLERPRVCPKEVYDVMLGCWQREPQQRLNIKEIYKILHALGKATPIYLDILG
Assay: Kinase panel profiling at 1 µmol/L (MSA or IMAP), percentage inhibition
Format: biochemical
Settings: kinase TRKC; 1 µmol/L single concentration; read-out: %-inhibition at 1 µmol/L, TRKC
Numbers only, in %.

1. C[C@H](Nc1ncnc2nc[nH]c12)c1cc2cccc(Cl)c2c(=O)n1-c1ccccc1 [duvelisib] ... 2

Could you report inhibition at 1 µM for every entry in the following list?
1. FC(F)(F)c1ccc(CNc2ccc(Cc3c[nH]c4ncc(Cl)cc34)cn2)cn1 [pexidartinib]
2. C=CC(=O)N1CCC([C@@H]2CCNc3c(C(N)=O)c(-c4ccc(Oc5ccccc5)cc4)nn32)CC1 [zanubrutinib]
3. Cn1cnc2c(F)c(Nc3ccc(Br)cc3Cl)c(C(=O)NOCCO)cc21 [selumetinib]

*A*
1. 81
2. -3.55
3. 10

----------
Biological target: panel of 255 wild-type kinases (Homo sapiens)
Sequence (P42681 1-527): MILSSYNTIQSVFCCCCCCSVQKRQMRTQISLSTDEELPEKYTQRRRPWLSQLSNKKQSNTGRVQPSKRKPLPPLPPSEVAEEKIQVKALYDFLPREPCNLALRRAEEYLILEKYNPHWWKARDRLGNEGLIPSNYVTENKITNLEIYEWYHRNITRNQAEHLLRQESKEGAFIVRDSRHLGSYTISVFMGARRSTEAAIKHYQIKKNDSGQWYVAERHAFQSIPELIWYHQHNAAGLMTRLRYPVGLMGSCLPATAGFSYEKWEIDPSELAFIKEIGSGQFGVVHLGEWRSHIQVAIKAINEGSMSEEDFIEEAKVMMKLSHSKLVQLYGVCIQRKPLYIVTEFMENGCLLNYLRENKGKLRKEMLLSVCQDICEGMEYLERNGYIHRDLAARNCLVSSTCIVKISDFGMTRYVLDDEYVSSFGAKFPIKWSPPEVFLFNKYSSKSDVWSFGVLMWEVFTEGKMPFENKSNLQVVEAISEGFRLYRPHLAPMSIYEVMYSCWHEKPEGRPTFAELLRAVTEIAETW
Test: Kinase panel profiling at 1 µmol/L (MSA or IMAP), percentage inhibition
Type: biochemical
Conditions: kinase TXK; 1 µmol/L single concentration; read-out: %-inhibition at 1 µmol/L, TXK
property.measured: inhibition at 1 µM (%)
Answers are plain numbers, in %.

1) C=CC(=O)N1CCC([C@@H]2CCNc3c(C(N)=O)c(-c4ccc(Oc5ccccc5)cc4)nn32)CC1 ... 89

Could you report inhibition at 1 µM for every entry in the following list?
1. CCN1C(=O)N(c2c(F)c(OC)cc(OC)c2F)Cc2cnc3[nH]c(CN4CCOCC4)cc3c21
2. COc1cc2ncnc(Nc3ccc(F)c(Cl)c3)c2cc1NC(=O)/C=C/CN1CCCCC1
3. Cc1cc(Nc2ncnc3ccc(NC4=NC(C)(C)CO4)cc23)ccc1Oc1ccn2ncnc2c1

*A*
[-0.753, 80, 5]

----------
Target: UniProt P16591
Sequence (P16591 whole entry): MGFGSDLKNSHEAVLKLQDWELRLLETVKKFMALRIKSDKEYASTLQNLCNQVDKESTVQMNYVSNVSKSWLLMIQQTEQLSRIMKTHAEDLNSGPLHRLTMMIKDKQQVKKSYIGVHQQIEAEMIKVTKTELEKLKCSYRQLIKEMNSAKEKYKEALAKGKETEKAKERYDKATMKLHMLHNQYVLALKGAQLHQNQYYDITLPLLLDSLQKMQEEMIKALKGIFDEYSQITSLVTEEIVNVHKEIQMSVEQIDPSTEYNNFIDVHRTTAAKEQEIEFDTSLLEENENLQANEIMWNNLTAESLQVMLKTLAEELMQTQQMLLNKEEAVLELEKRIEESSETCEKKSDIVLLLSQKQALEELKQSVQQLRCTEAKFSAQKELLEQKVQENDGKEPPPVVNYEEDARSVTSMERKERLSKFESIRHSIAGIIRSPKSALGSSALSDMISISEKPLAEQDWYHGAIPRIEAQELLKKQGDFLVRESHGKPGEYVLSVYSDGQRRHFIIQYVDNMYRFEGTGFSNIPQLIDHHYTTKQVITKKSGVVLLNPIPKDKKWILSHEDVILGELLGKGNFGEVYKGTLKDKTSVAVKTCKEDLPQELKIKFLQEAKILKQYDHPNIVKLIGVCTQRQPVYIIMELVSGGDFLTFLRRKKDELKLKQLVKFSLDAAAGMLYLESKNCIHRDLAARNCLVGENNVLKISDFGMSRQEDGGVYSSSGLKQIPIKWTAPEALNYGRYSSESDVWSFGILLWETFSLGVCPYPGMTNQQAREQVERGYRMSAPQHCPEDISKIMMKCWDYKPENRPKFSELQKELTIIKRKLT
Assay: Kinase panel profiling at 1 µmol/L (MSA or IMAP), percentage inhibition
Type: biochemical
Conditions: kinase FER; 1 µmol/L single concentration; read-out: %-inhibition at 1 µmol/L, FER
property.measured: inhibition at 1 µM
Just the number plus its unit, please.

Here is how some compounds turned out for inhibition at 1 µM.
1. Cn1cnc2c(F)c(Nc3ccc(Br)cc3Cl)c(C(=O)NOCCO)cc21 ... 1.22%
2. O=C(Nc1cnn2ccc(N3CCC[C@@H]3c3cc(F)ccc3F)nc12)N1CC[C@H](O)C1 ... 3.72%
3. Cc1nc(NC(=O)N2CCC[C@H]2C(N)=O)sc1-c1ccnc(C(C)(C)C(F)(F)F)c1 ... -1.86%
4. COc1ccc(CN2C3CC2CN(c2ccc(-c4cc(OCC(C)(C)O)cn5ncc(C#N)c45)cn2)C3)cn1 ... 35%
5. CN1CCN(c2ccc(C(=O)Nc3n[nH]c4ccc(Cc5cc(F)cc(F)c5)cc34)c(NC3CCOCC3)c2)CC1 ... 99%

Kindly consider the entry below.
// field: inhibition at 1 µM; key: CCN1CCN(c2ccc(Nc3cc(N(C)C(=O)Nc4c(Cl)c(OC)cc(OC)c4Cl)ncn3)cc2)CC1 ; value = 9.48%

----------
Tested on: 134 cancer cell lines
Assay: Cell viability assay (ATPlite, 72 hours), IC50 on cancer cell line panel
Conditions: Homo sapiens, SW780, read-out: IC50 in cell proliferation assay
property.measured: pIC50
One number for each entry, as −log10 of the molar value.

Could you report pIC50 for every entry in the following list?
1. C=CC(=O)N1CCC([C@@H]2CCNc3c(C(N)=O)c(-c4ccc(Oc5ccccc5)cc4)nn32)CC1 [zanubrutinib]
2. C[C@@H](Oc1cc(-c2cnn(C3CCNCC3)c2)cnc1N)c1c(Cl)ccc(F)c1Cl [crizotinib]
3. CCN1C(=O)N(c2c(F)c(OC)cc(OC)c2F)Cc2cnc3[nH]c(CN4CCOCC4)cc3c21 [pemigatinib]

*A*
1. 5.24
2. 5.41
3. 8.10

----------
System: 134 cancer cell lines
Assay: Cell viability assay (ATPlite, 72 hours), IC50 on cancer cell line panel
Conditions: Homo sapiens, Hs-578T, read-out: IC50 in cell proliferation assay
pIC50: −log10 of the molar value.
property.measured: pIC50

// field: pIC50; key: CC#CC(=O)N1CCC[C@H]1c1nc(-c2ccc(C(=O)Nc3ccccn3)cc2)c2c(N)nccn12 ; value = < 4.50

----------
For each record, write down the corresponding inhibition at 1 µM.
Biological target: panel of 255 wild-type kinases (Homo sapiens, UniProt P35916)
Sequence (P35916 25-1363): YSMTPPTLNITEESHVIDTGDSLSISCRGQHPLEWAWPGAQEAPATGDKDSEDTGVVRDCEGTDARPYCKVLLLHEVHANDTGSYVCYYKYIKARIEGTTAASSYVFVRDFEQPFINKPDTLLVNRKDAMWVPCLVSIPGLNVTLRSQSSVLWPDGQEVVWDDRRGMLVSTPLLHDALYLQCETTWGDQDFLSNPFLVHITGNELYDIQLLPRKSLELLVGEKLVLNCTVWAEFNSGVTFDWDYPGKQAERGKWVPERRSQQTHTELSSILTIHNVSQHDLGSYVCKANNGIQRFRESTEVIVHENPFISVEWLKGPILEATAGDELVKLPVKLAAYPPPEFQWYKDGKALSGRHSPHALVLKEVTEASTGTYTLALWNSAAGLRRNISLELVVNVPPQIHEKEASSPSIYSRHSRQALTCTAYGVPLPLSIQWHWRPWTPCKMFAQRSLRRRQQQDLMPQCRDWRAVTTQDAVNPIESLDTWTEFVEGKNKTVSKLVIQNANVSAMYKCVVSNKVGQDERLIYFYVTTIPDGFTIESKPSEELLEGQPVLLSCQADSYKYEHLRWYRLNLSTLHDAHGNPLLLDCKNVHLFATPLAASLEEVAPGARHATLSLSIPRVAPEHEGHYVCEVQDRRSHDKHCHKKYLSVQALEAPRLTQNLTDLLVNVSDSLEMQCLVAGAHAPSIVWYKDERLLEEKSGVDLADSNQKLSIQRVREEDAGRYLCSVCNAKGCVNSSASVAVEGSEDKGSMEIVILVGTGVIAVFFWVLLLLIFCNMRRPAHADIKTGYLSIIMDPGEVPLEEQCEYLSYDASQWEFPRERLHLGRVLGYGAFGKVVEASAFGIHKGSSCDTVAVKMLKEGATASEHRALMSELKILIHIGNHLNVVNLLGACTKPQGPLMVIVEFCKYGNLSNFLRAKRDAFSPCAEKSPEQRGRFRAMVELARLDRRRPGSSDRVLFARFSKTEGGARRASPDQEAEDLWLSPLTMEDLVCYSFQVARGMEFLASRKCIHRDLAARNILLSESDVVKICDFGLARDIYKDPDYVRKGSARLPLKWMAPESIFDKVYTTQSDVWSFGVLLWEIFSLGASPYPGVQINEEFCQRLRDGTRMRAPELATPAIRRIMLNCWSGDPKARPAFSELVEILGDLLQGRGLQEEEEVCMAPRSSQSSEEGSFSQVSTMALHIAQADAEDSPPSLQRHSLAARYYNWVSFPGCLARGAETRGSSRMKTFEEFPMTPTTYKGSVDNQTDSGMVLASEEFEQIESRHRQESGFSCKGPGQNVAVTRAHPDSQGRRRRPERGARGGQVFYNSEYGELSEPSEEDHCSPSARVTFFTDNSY
Assay: Kinase panel profiling at 1 µmol/L (MSA or IMAP), percentage inhibition
Assay type: biochemical
Details: kinase FLT4; 1 µmol/L single concentration; read-out: %-inhibition at 1 µmol/L, FLT4
Give bare numbers, in %.

Here is how some compounds turned out for inhibition at 1 µM.
1. C[C@H](Nc1ncnc2nc[nH]c12)c1cc2cccc(Cl)c2c(=O)n1-c1ccccc1 ... 0.523
2. C[C@H]1Oc2cc(cnc2N)-c2c(nn(C)c2C#N)CN(C)C(=O)c2ccc(F)cc21 ... 5
3. Cn1cc(-c2cc3c(N4CCN(c5ncc([C@@](C)(N)c6ccc(F)cc6)cn5)CC4)ncnn3c2)cn1 ... 88

Kindly consider the entry below.
// field: inhibition at 1 µM; key: Cn1cnc2c(F)c(Nc3ccc(Br)cc3F)c(C(=O)NOCCO)cc21 ; value = 3.37
